Tested on: NCI-H23 lung
Assay: NCI tumour cell line growth inhibition, 48 h
reported-property: TGI

Q) I'd like to know its TGI. The compound in question is NC(=O)c1nc(-c2ccc(Cl)c(Cl)c2)nc2ccccc12
A) > 100 µM

Q) Check CCOC(=O)C(=O)Nc1nc2ccc(C)cc2s1 too.
A) > 100 µM

Q) Check CC1OC(=O)N2CCC=CC12 (configuration not stated) too.
A) > 100 µM

Q) Check COC(=O)C(/C(=N\O)C(=O)Nc1ccc(Br)cc1)c1nc2ccccc2[nH]c1=O (configuration not stated) too.
A) > 100 µM

---

Tested on: A549 NSCLC
Experiment: NCI tumour cell line growth inhibition, 48 h
reported-property: TGI

Here are 3 compounds together with their reported answers.
>>> print(df.to_string())
                                   compound  target_under_test  assay_value
0     O=c1[nH]c2ccc(C(F)(F)F)cc2nc1C(F)(F)F         A549 NSCLC     > 100 µM
1  O=[N+]([O-])c1ccc(Nc2cccc3c2[nH]c2c(-c4ccccc4)nccc23)c([N+](=O)[O-])c1         A549 NSCLC     > 100 µM
2  CCN(CC)CCNc1ccc([N+](=O)[O-])c2nc3ccc(OC)cc3c(N)c12         A549 NSCLC      2.79 µM

Q) I'd like to know its TGI. The compound in question is Fc1ccc2c(c1)nc1n2C(c2c(F)cccc2F)SC1 (stereo unspecified)
A) > 100 µM

Q) Check COc1ccc(C2=NN(c3nsc4ccccc34)C(=O)CC2)cc1 too.
A) > 100 µM

Q) Check O=C1/C(=C/c2ccc(O)cc2)Oc2ccccc21 too.
A) > 100 µM

Q) Check NS(=O)(=O)c1ccc(NCc2nc3ccccc3[nH]2)cc1 too.
A) > 100 µM

Q) Check NC(=S)NS(=O)(=O)c1ccc(Cl)cc1 too.
A) > 100 µM

Q) Check CC(C)c1cc(C(C)C)c(B(c2ccccc2)c2ccccc2)c(C(C)C)c1B(c1ccccc1)c1ccccc1 too.
A) > 100 µM

Q) Check COC(=O)C#CC(N)=O too.
A) > 100 µM

Q) Check CCSc1nc(N)c2cnn(CC)c2n1 too.
A) 20.9 µM
